TEST_SYSTEM: hNET (Homo sapiens)
Construct: expressed in transfected cells
ASSAY_OVERVIEW: Norepinephrine (NE) uptake assay in MDCK-Net6 cells stably transfected with human hNET
Type: cell-based
CONDITION_NOTES: MDCK-Net6, 1 μM test compound, [3H]NE uptake
Where a name gives a salt, the structure may show the parent alone.
Returns Yes if the recorded inhibition at 1 µM is greater than or equal to 80%, and No otherwise.

Worked set:
COMPOUND	CATEGORY
N[C@H]1CCN(CC(c2ccc3ccccc3c2)C2(O)CCCCC2)C1 (stereo partly drawn) [Example 204, dihydrochloride]	No
OC1(C(CN2CCC(N3CCCCC3)CC2)c2ccc3ccccc3c2)CCCCC1 (stereo not drawn) [Example 22, dihydrochloride]	Yes

Problem: Does N[C@H]1CCCN(CC(c2cccc(OC(F)(F)F)c2)C2(O)CCCCC2)C1 (stereo partly drawn) [Example 190, dihydrochloride] have a reported inhibition at 1 µM of at least 80%?
Solution: No

Problem: Does OC1CCN(CC(c2ccc(OCc3ccccc3)c(Cl)c2)C2(O)CCCCC2)CC1 (stereo not drawn) [Example 241, hydrochloride] have a reported inhibition at 1 µM of at least 80%?
Solution: No

Problem: Does N[C@H]1CCN(CC(c2cccc3ccccc23)C2(O)CCCCC2)C1 (stereo partly drawn) [Example 207, dihydrochloride] have a reported inhibition at 1 µM of at least 80%?
Solution: No

Problem: Does NC1CCN(CC(c2ccc(Cl)c(Cl)c2)C2(O)CCCCC2)CC1 (stereo not drawn) [Example 14, dihydrochloride] have a reported inhibition at 1 µM of at least 80%?
Solution: Yes

Problem: Does OC1(C(CN2CCC(N3CCCCC3)CC2)c2cccc(Br)c2)CCCCC1 (stereo not drawn) [Example 4, dihydrochloride] have a reported inhibition at 1 µM of at least 80%?
Solution: Yes

Problem: Does CN(C)[C@@H]1CCN(CC(c2cccc3ccccc23)C2(O)CCCCC2)C1 (stereo partly drawn) [Example 378, dihydrochloride] have a reported inhibition at 1 µM of at least 80%?
Solution: No

Problem: Does CN(C)C1CCN(CC(c2ccc(OCc3ccccc3)c(Cl)c2)C2(O)CCCCC2)CC1 (stereo not drawn) have a reported inhibition at 1 µM of at least 80%?
Solution: Yes

Problem: Does N[C@H]1CCN(CC(c2ccc(OCc3ccccc3)cc2)C2(O)CCCCC2)C1 (stereo partly drawn) [Example 213, dihydrochloride] have a reported inhibition at 1 µM of at least 80%?
Solution: Yes

Problem: Does CN(C)C1CCN(CC(c2ccc3ccccc3c2)C2(O)CCCCC2)CC1 (stereo not drawn) [Example 317, dihydrochloride] have a reported inhibition at 1 µM of at least 80%?
Solution: No

---

TEST_SYSTEM: hNET (Homo sapiens)
Construct: expressed in transfected cells
ASSAY_OVERVIEW: Norepinephrine (NE) uptake assay in MDCK-Net6 cells stably transfected with human hNET
Assay type: cell-based
CONDITION_NOTES: MDCK-Net6, 1 μM test compound, [3H]NE uptake
Structures can show the parent of a compound that is named as a salt.
ENDPOINT: inhibition at 1 µM (%)
State the answer as a number, implicitly in %.

Below, 5 molecules whose answers are already recorded.
MOLECULE	inhibition at 1 µM (%)
CN(C)C1CCN(CC(c2cccc(Cl)c2)C(C)(C)O)CC1 (stereo not drawn) [Example 274, dihydrochloride]	50
CN(C)[C@H]1CCN(CC(c2ccc(OCc3ccccc3)c(Cl)c2)C2(O)CCCCC2)C1 (stereo partly drawn) [Example 211, dihydrochloride]	95.6
NC1CCN(CC(c2ccc(OCc3ccc4ccccc4c3)c(Cl)c2)C2(O)CCCCC2)CC1 (stereo not drawn) [Example 430, dihydrochloride]	42
CN(C)[C@@H]1CCN(CC(c2ccc3ccccc3c2)C2(O)CCCCC2)C1 (stereo partly drawn) [Example 375, dihydrochloride]	39
CNC1CCN(CC(c2ccc3ccccc3c2)C2(O)CCCCC2)CC1 (stereo not drawn) [Example 49, dihydrochloride]	39

Problem: # lookup: inhibition at 1 µM of CN(C)[C@@H]1CCCN(CC(c2cccc(OC(F)(F)F)c2)C2(O)CCCCC2)C1 (stereo partly drawn) [Example 188, dihydrochloride]
Solution: 17.6

Problem: # lookup: inhibition at 1 µM of C[C@@H]1CCC(O)([C@H](CN2CCC(N3CCCCC3)CC2)c2cccc(OC(F)(F)F)c2)C1 (stereo partly drawn) [Example 398, dihydrochloride]
Solution: 0

---

TEST_SYSTEM: hNET (Homo sapiens, UniProt P23975)
Construct: expressed in transfected cells
Sequence (P23975 whole entry): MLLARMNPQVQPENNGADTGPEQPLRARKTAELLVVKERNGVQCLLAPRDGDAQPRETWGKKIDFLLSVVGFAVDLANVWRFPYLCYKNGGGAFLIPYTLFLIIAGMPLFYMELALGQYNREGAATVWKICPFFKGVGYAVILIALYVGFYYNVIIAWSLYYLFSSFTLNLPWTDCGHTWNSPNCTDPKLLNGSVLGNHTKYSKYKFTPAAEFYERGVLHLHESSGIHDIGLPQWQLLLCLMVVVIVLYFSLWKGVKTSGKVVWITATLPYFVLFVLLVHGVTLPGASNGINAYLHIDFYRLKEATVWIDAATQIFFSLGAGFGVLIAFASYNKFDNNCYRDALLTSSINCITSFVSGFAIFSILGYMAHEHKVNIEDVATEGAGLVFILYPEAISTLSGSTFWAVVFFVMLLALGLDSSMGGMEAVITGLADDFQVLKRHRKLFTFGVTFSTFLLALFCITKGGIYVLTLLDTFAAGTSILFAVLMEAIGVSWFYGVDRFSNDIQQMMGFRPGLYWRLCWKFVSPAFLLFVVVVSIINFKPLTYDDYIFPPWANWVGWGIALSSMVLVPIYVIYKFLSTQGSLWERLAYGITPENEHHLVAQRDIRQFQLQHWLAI
ASSAY_OVERVIEW: Norepinephrine (NE) uptake assay in MDCK-Net6 cells stably transfected with human hNET
Type: cell-based
CONDITION_NOTES: MDCK-Net6, 30 μM test compound (stated in cell), [3H]NE uptake
Where a name gives a salt, the structure may show the parent alone.
ENDPOINT: inhibition at 30 µM (%)
State the answer as a number, implicitly in %.

COMPOUND	ENDPOINT	MEASUREMENT
COC1CCN(CC(c2ccc(OCc3ccccc3)c(Cl)c2)C2(O)CCCCC2)CC1 (stereo not shown) [Example 339, hydrochloride]	inhibition at 30 µM	94
N[C@@H]1CCN(CC(c2cccc3ccccc23)C2(O)CCCCC2)C1 (stereo partly shown) [Example 377, dihydrochloride]	inhibition at 30 µM	82
CN(C)[C@@H]1CCN(CC(c2ccc(OCc3ccccc3)cc2)C2(O)CCCCC2)C1 (stereo partly shown) [Example 381, dihydrochloride]	inhibition at 30 µM	95

Problem: # lookup: inhibition at 30 µM of N[C@@H]1CCN(CC(c2cccc(OC(F)(F)F)c2)C2(O)CCCCC2)C1 (stereo partly shown) [Example 386, dihydrochloride]
Solution: 82

---

TEST_SYSTEM: hNET (Homo sapiens, UniProt P23975)
ASSAY_OVERVIEW: Norepinephrine (NE) uptake assay in MDCK-Net6 cells stably transfected with human hNET
CONDITION_NOTES: [3H]NE uptake, test range 1 to 10,000 nM
Experimental: MDCK-Net6 cells, stably transfected with human hNET (Pacholczyk, T., R. D. Blakely, and S. G. Amara, Nature, 1991, 350(6316): p. 350-4) were cultured in growth medium containing high glucose DMEM (Gibco, Cat. No. 11995), 10% FBS (dialyzed, heat-inactivated, US Bio-Technologies, Lot FBD1129HI) and 500 μg/ml G418 (Gibco, Cat. No. 10131). Cells were plated at 300,000/T75 flask and cells were split twice weekly. […]
Counter-ions that a name gives are not always drawn.
Reported values of EC50 for individual entries
State the answer as a number, implicitly in nM.

MOLECULE	EC50 [nM]
NC1CCN(CC(c2cccc(Cl)c2)C2(O)CCCCC2)CC1 (stereo not shown) [Example 35, dihydrochloride]	52
COc1ccc(C(CN2CCC(N3CCCCC3)CC2)C2(O)CCCCC2)cc1Br (stereo not shown) [Example 8, dihydrochloride]	140
OC1(C(CN2CCC(N3CCCC3)CC2)c2ccc(Cl)c(Cl)c2)CCCCC1 (stereo not shown) [Example 11, dihydrochloride]	260
CN(C)C1CCN(CC(c2ccc(OCc3ccc4ccccc4c3)c(Cl)c2)C2(O)CCCCC2)CC1 (stereo not shown) [Example 431, dihydrochloride]	54

Problem: Checklist item: EC50 tested on hNET (Homo sapiens, UniProt P23975), entry CNC1CCN(CC(c2ccc(Cl)c(Cl)c2)C2(O)CCCCC2)CC1 (stereo not shown) [Example 13, dihydrochloride] , value?
Solution: 210

Problem: Checklist item: EC50 tested on hNET (Homo sapiens, UniProt P23975), entry OC1(C(CN2CCC(N3CCCC3)CC2)c2cccc(Br)c2)CCCCC1 (stereo not shown) [Example 7, dihydrochloride] , value?
Solution: 70

Problem: Checklist item: EC50 tested on hNET (Homo sapiens, UniProt P23975), entry CNC1CCN(CC(c2cccc(C(F)(F)F)c2)C2(O)CCCCC2)CC1 (stereo not shown) [Example 30, dihydrochloride] , value?
Solution: 530

---

TEST_SYSTEM: hNET (Homo sapiens)
Construct: expressed in transfected cells
ASSAY_OVERVIEW: Norepinephrine (NE) uptake assay in MDCK-Net6 cells stably transfected with human hNET
Type: cell-based
CONDITION_NOTES: MDCK-Net6, 1 μM test compound, [3H]NE uptake
Counter-ions that a name gives are not always drawn.
Returns y if the recorded inhibition at 1 µM is greater than or equal to 70%, and n otherwise.

Problem: Does CN(C)[C@@H]1CCN(CC(c2cccc(Cl)c2)C2(O)CCCCC2)C1 (stereo partly shown) [Example 202, dihydrochloride] have a reported inhibition at 1 µM of at least 70%?
Solution: y

Problem: Does CN(C)C1CCN(CC(c2ccc(Cl)c(Cl)c2)C2(O)CCCCC2)CC1 (stereo not shown) [Example 320, dihydrochloride] have a reported inhibition at 1 µM of at least 70%?
Solution: y

Problem: Does COc1ccc2scc(C(CN3CCC(N)CC3)C3(O)CCCCC3)c2c1 (stereo not shown) [Example 280, dihydrochloride] have a reported inhibition at 1 µM of at least 70%?
Solution: n

Problem: Does CNC1CCN(CC(c2cccc(Cl)c2)C2CCCCC2)CC1 (stereo not shown) [Example 232, dihydrochloride] have a reported inhibition at 1 µM of at least 70%?
Solution: y

Problem: Does OC1(C(CN2CCC(N3CCOCC3)CC2)c2cccc(OC(F)(F)F)c2)CCCCC1 (stereo not shown) [Example 361, dihydrochloride] have a reported inhibition at 1 µM of at least 70%?
Solution: n

Problem: Does CN(C)[C@H]1CCN(CC(c2ccc(OCc3ccccc3)cc2)C2(O)CCCCC2)C1 (stereo partly shown) [Example 214, dihydrochloride] have a reported inhibition at 1 µM of at least 70%?
Solution: n

Problem: Does CC1CCC(O)(C(CN2CCC(N)CC2)c2cccc(Cl)c2)CC1 (stereo not shown) [Example 330, dihydrochloride] have a reported inhibition at 1 µM of at least 70%?
Solution: n
